Some binders, each annotated with its measured ELISA mIL-12RB2/control.
- measured on: T1, biotinylated recombinant mouse IL-12Rβ2 (mouse, UniProt P97378 24-637, random biotinylated)
- T1 construct: Recombinant protein produced in-house; also called mIL-12RB2; mouse IL-12RB2
- T1 sequence: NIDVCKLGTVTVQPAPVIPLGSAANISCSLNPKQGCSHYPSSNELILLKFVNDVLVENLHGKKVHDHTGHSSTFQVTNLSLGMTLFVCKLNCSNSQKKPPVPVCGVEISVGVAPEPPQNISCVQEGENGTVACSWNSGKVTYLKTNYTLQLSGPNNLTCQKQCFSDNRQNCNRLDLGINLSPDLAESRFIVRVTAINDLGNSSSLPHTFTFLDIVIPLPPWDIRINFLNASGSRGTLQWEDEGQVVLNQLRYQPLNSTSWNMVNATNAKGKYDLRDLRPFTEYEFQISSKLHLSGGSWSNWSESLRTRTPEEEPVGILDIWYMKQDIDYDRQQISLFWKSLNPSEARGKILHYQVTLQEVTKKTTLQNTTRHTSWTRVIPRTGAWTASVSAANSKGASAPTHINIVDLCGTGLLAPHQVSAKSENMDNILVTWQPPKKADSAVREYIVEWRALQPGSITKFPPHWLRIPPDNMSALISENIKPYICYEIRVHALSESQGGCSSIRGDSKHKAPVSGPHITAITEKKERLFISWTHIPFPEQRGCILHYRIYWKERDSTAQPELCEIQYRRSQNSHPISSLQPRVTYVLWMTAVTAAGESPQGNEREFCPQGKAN
- assay: ELISA, P.E., biotinylated antigen
Keep the answer to the number alone.

**Q:** Hello, please tell me recorded ELISA mIL-12RB2/control for this one: anti-IL-12Rβ2 VHH clone 3CRHS109 (clone ID 20430) (VHH, not shown: small tags and cut ends, periplasmic extract) VHH: QVQLQESGGGLVQPGGSLRLSCAASGFTFSTSGMHWFRQAPGKGLEWVSSIGIIVDSSYYASSVKGRFTISRDNAKNTLYLHMNSLKSEDTAVYYCSKDVTGSSRGQGTQVTVSS
**A:** 1.07

**Q:** Hello, please tell me recorded ELISA mIL-12RB2/control for this one: anti-IL-12Rβ2 VHH clone 3CRH38 (clone ID 20381) (VHH, not shown: small tags and cut ends, periplasmic extract) VHH: QVQLQESGGGLVQAGGSLVLSCAASGSAALIFLMSWYRQAPGKQRELVAEVSRGGSTTYADSVEGRFTISRDNAKNIVDLQMNSLKPEDTAVYYCKADQNYGDSLRSSWGRGTQVTVSS
**A:** 1.85

Recorded values, source patent US20260209362A1.
